Data origin, for the record: the supplement of paper PMC10065799

target: Hck (UniProt P08631); assay: phosphorylation enrichment, bacterial display (enrichment ratio); higher = better substrate or ligand; peptides without Tyr show the background
Sequence (P08631 whole entry, looked up): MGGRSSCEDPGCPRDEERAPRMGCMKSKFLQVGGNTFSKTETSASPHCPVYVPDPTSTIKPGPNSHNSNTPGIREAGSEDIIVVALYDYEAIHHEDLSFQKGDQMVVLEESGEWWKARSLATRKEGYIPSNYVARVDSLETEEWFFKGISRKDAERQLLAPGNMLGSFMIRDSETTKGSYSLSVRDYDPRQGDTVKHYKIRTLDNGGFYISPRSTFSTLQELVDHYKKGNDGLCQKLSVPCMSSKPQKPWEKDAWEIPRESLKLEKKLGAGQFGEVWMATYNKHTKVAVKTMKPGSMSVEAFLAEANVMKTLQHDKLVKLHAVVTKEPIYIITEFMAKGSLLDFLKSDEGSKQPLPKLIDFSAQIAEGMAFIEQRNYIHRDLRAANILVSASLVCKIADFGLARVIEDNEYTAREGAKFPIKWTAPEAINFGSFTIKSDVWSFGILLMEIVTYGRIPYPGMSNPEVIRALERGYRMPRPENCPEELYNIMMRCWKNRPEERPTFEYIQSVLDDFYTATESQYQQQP
Consider the following sequences and their measured phosphorylation enrichment readings.
Returns: the value as a bare number; no unit string appended.

Sequence chain: FFTEEYVRAHP [DOCK2_Y1555_D1558A]
Endpoint label: phosphorylation enrichment
Value observed: 0.599

Sequence chain: VASSLYDIFAR [GLB1_Y294_L297F]
Endpoint label: phosphorylation enrichment
Value observed: 8.55

Sequence chain: IGEVVYQRAVM [GRIN2A_Y502]
Endpoint label: phosphorylation enrichment
Value observed: 2.19

Sequence chain: ETLLFYGCRRS [POR_Y564_YF]
Endpoint label: phosphorylation enrichment
Value observed: 0.463

Sequence chain: PTDSVYVMPTV [MYO7A_Y1668]
Endpoint label: phosphorylation enrichment
Value observed: 3.43

Would you kindly share the measured phosphorylation enrichment for RRYVYYYSYLL [PTEN_Y177] ? 0.764

Would you kindly share the measured phosphorylation enrichment for KRGASYILKLA [SERPINB1_Y84] ? 0.414

Would you kindly share the measured phosphorylation enrichment for NIISFYLSRDP [CTSD_Y232_F229I] ? 0.451

Would you kindly share the measured phosphorylation enrichment for TSIGNYYKPWF [DHCR24_Y299_N294T] ? 1.03

Would you kindly share the measured phosphorylation enrichment for LAIELYVVVCK [RHO_Y136_R135L] ? 0.861

Would you kindly share the measured phosphorylation enrichment for GVYSRHFTTYD [CLCA1_Y661_Y661H] ? 1.31

Would you kindly share the measured phosphorylation enrichment for VRFMAYTDETC [F8_Y450_F455C] ? 0.662

Would you kindly share the measured phosphorylation enrichment for TLERHYEELQA [SPTBN2_Y834] ? 0.591

Would you kindly share the measured phosphorylation enrichment for FAELVYTGFWH [ASS1_Y322] ? 6

Would you kindly share the measured phosphorylation enrichment for KSELAYEIFDK [MYOM2_Y1024] ? 0.951

Would you kindly share the measured phosphorylation enrichment for ALECLYHREKR [TEKT5_Y195] ? 0.583

Would you kindly share the measured phosphorylation enrichment for IQKWEYVPLGT [FAH_Y244_P249T] ? 0.428

---

target: Fyn (UniProt P06241); assay: phosphorylation enrichment, bacterial display (enrichment ratio); higher = better substrate or ligand; peptides without Tyr show the background
Sequence (P06241 whole entry, looked up): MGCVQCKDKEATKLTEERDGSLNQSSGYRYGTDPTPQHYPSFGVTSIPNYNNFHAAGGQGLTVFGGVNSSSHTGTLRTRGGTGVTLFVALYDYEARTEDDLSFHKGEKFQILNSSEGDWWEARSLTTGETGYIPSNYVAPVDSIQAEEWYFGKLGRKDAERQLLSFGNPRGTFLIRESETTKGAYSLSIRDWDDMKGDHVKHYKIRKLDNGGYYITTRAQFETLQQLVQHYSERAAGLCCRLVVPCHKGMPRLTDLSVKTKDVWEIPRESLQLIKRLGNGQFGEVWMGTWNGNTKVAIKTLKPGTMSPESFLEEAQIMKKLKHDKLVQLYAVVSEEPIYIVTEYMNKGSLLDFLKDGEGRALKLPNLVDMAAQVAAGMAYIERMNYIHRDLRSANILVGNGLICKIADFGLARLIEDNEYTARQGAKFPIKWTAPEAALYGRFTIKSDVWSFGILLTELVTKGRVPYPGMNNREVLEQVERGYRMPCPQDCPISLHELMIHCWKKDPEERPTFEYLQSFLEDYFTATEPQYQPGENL
Endpoint label: phosphorylation enrichment
Returns: the value as a bare number; no unit string appended.

Recorded results for 6 sequences are shown here.
Sequence chain: DQIDTYELSGG [DNM1_Y354]
Measured on: Fyn (UniProt P06241)
phosphorylation enrichment: 1.29
--
Sequence chain: RLRKYHLGKYL [KLB_Y906_Y906H]
Measured on: Fyn (UniProt P06241)
phosphorylation enrichment: 0.318
--
Sequence chain: KVKPIYLHTQG [AR_Y916_F917L]
Measured on: Fyn (UniProt P06241)
phosphorylation enrichment: 0.405
--
Sequence chain: CPFNLYAEQFS [HGD_Y40_L44F_YF]
Measured on: Fyn (UniProt P06241)
phosphorylation enrichment: 0.834
--
Sequence chain: CCNHPYRINGA [CHD7_Y1256_L1257R]
Measured on: Fyn (UniProt P06241)
phosphorylation enrichment: 0.542
--
Sequence chain: HISGVYKLPPD [ANGPTL7_Y145_R140H]
Measured on: Fyn (UniProt P06241)
phosphorylation enrichment: 3.26

Requested read-out phosphorylation enrichment, target or system Fyn (UniProt P06241), entry LENSTYQYIHV [CRB1_Y760_R764H] 3.32

Requested read-out phosphorylation enrichment, target or system Fyn (UniProt P06241), entry EFKDAYTFAAD [BRDT_Y335_K336T_YF] 0.63

Requested read-out phosphorylation enrichment, target or system Fyn (UniProt P06241), entry WQQQSYLDYGI [CTNNB1_Y30_S33Y] 0.604

---

Consider the following sequences and their measured phosphorylation enrichment readings.
system: c-Src; assay: phosphorylation enrichment, bacterial display (enrichment ratio); higher = better substrate or ligand; peptides without Tyr show the background
Returns: the value as a bare number; no unit string appended.

Recorded results for 5 sequences are shown here.
Sequence chain: SHTPSYCDEWL [RITA1_Y109_S113W]
phosphorylation enrichment: 0.494
//
Sequence chain: KPGVNYYFQVS
phosphorylation enrichment: 0.5
//
Sequence chain: FSNPAYFVLEG [INPPL1_Y986_N982S_YF]
phosphorylation enrichment: 0.809
//
Sequence chain: IHETTHNSIMK [ACTA1_Y281_Y281H]
phosphorylation enrichment: 0.262
//
Sequence chain: HPAGNYSLSSV [ARFGAP3_Y473_Q468H]
phosphorylation enrichment: 0.425

Would you kindly share the measured phosphorylation enrichment for GRVLGYGAFRK [FLT4_Y853_G857R] ? 0.52

Would you kindly share the measured phosphorylation enrichment for PPNSPYMGSSP [KCNT1_Y740_I741M] ? 0.59

Would you kindly share the measured phosphorylation enrichment for RHPLDYLRQYP [NARS2_Y138_E137D] ? 0.411

---

system: c-Abl (mouse); test: phosphorylation enrichment, bacterial display (enrichment ratio); higher = better substrate or ligand; peptides without Tyr show the background
Endpoint label: phosphorylation enrichment
Returns: the value as a bare number; no unit string appended.

Sequence chain: EVASVYESFQP [MAVS_Y92_Q93E_YF]
phosphorylation enrichment: 1.56

Would you kindly share the measured phosphorylation enrichment for ALARKYHGGGG [HBB_Y146_H144R] ? 0.407

Would you kindly share the measured phosphorylation enrichment for TGGLEYIVPLM [CLCN4_Y548] ? 0.937

Would you kindly share the measured phosphorylation enrichment for EAVKNYTEKRG [PBRM1_Y672_D674E] ? 0.433

---

target: c-Src SH2; test: SH2 binding enrichment of the phosphorylated peptide, bacterial display (enrichment ratio); higher = better substrate or ligand; peptides without Tyr show the background;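 note: peptide library displayed on the E. coli surface as eCPX fusions, selected cells deep-sequenced, score is each peptide's frequency after selection divided by its frequency in the input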
Endpoint label: SH2 binding enrichment
Returns: the value as a bare number; no unit string appended.

Recorded results for 2 sequences are shown here.
Sequence chain: SFCFRYRCAAR [SUMF1_Y344_YF]
SH2 binding enrichment: 0.4
//
Sequence chain: EILLSYLRTGF [TGM1_Y365_YF]
SH2 binding enrichment: 0.64

Would you kindly share the measured SH2 binding enrichment for MENFIYESMRY [CYP19A1_Y361] ? 0.627

---

system: Fer (mouse); experiment: phosphorylation enrichment, bacterial display (enrichment ratio); higher = better substrate or ligand; peptides without Tyr show the background
Consider the following sequences and their measured phosphorylation enrichment readings.
Returns: the value as a bare number; no unit string appended.

Recorded results for 3 sequences are shown here.
Sequence chain: EEGNPYYSSAR [MCCC2_Y520]
Value observed: 0.528

Sequence chain: LQPNNCQFCGG [CSF1R_Y969_Y969C]
Value observed: 0.348

Sequence chain: DIPIRYSIMGV [CDH4_Y205_T208M]
Value observed: 0.421

Would you kindly share the measured phosphorylation enrichment for IHFAIYLLKFS [ARMC9_Y107_YF] ? 0.303

---

tested on: AncSZ; assay: phosphorylation enrichment, bacterial display (enrichment ratio); higher = better substrate or ligand; peptides without Tyr show the background
Each entry falls into one class according to its phosphorylation enrichment; the ranges are L (below 0.8), M (0.8 to below 1), H (1 or more)

Bin? ETSHNYHKFDS [MATR3_Y243] L

Bin? YSTDYYRVGGH [NTRK2_Y707] H

Bin? MGGSLYFSYPD [HIKESHI_Y55_V54L] H

Bin? TSNQEYLYLSM [FGFR1_Y766_D768Y] H

Bin? RLLREYQELMN [KRT75_Y434] L

---

Consider the following sequences and their measured phosphorylation enrichment readings.
biological target: FGFR3 (UniProt P22607); assay: phosphorylation enrichment, bacterial display (enrichment ratio); higher = better substrate or ligand; peptides without Tyr show the background
Sequence (P22607 whole entry, looked up): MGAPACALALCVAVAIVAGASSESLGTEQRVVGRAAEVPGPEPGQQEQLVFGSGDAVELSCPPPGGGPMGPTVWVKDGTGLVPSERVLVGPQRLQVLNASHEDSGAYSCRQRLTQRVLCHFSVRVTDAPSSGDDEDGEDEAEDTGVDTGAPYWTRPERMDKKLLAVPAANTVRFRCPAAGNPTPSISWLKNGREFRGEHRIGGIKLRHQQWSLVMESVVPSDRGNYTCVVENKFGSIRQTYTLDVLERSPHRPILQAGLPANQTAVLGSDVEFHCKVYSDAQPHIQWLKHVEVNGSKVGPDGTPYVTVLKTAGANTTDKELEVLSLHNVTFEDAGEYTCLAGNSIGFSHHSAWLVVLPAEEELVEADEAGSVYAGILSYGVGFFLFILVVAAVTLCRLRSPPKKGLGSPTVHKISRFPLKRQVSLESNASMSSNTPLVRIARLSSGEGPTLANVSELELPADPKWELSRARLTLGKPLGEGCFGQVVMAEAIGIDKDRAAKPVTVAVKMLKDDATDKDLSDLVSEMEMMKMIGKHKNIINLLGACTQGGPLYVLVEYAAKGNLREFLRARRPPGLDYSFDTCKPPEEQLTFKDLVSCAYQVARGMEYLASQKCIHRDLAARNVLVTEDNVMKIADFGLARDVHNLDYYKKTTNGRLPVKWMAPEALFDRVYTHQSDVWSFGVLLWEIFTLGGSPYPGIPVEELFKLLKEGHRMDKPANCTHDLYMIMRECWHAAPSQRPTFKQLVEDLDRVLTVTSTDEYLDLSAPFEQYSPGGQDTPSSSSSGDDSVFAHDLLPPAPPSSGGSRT
Returns: the value as a bare number; no unit string appended.

Sequence chain: LVSCTYQLARG [FGFR2_Y608]
Value observed: 0.698

Sequence chain: FSTDCYRVGGH [NTRK2_Y707_Y706C_YF]
Value observed: 0.638

Sequence chain: FTRNYYVRAVL [CYBA_Y88]
Value observed: 0.685

Sequence chain: AHPIIYDIIEA [PYKtide_D_2014]
Value observed: 0.794

# next sequence below
Would you kindly share the measured phosphorylation enrichment for GESQGYDIMEP [MSH2_Y863] ? 0.642

---

system: Fer (mouse); test: phosphorylation enrichment, bacterial display (enrichment ratio); higher = better substrate or ligand; peptides without Tyr show the background
Consider the following sequences and their measured phosphorylation enrichment readings.
Returns: the value as a bare number; no unit string appended.

Would you kindly share the measured phosphorylation enrichment for ASNFNYFFHRE [KCNA1_Y413_V408A_YF] ? 0.415

Would you kindly share the measured phosphorylation enrichment for HIAKGYRRDNP [HARS1_Y156_V155G] ? 0.438

Would you kindly share the measured phosphorylation enrichment for DPNQQYFIAMD [TBX15_Y159_H156N_YF] ? 0.403

Would you kindly share the measured phosphorylation enrichment for LDYNEYFRGLN [HPRT1_Y198_D201G] ? 1.06

Would you kindly share the measured phosphorylation enrichment for GGDVIYKGFED [NFU1_Y194] ? 0.395

Would you kindly share the measured phosphorylation enrichment for EVVGRYSVHFA [MLH1_Y183_N187Y_YF] ? 0.424
